- Assay target: Ras farnesyl transferase (Homo sapiens, UniProt P49354+P49356)
- Construct: made in house
- Test description: In vitro inhibitory activity for Ras farnesyl transferase, H-Ras substrate
- Format: biochemical
- Experimental parameters: recombinant farnesyl transferase 4.5 nM, Ras substrate protein 1.5 μM, tritium-farnesylpyrophosphate 0.15 μM, 30 minutes at 37° C.; read-out: H-Ras IC50
pIC50: −log10 of the molar value.
Please enter Y where pIC50 is greater than or equal to 7, and N where it is lower.

INSERT INTO results (molecule, assay_target, assigned_class) VALUES
  ('O=C(c1cn(Cc2c[nH]cn2)cc1-c1cccc2ccccc12)N1CCCCC1', 'Ras farnesyl transferase (Homo sapiens, UniProt P49354+P49356)', 'N'),
  ('COCCN(C)C(=O)c1cn(Cc2cncn2Cc2ccc(F)cc2)cc1-c1cccc2ccccc12', 'Ras farnesyl transferase (Homo sapiens, UniProt P49354+P49356)', 'Y'),
  ('O=C(c1cn(Cc2c[nH]cn2)cc1-c1cccc2ccccc12)N1CCS(=O)(=O)CC1', 'Ras farnesyl transferase (Homo sapiens, UniProt P49354+P49356)', 'Y'),
  ('CN1CCN(C(=O)c2cn(Cc3cncn3Cc3ccc(Br)cc3)cc2-c2cccc3ccccc23)CC1', 'Ras farnesyl transferase (Homo sapiens, UniProt P49354+P49356)', 'Y'),
  ('COCCN(C)C(=O)c1cn(Cc2cncn2C)nc1-c1cccc2ccccc12', 'Ras farnesyl transferase (Homo sapiens, UniProt P49354+P49356)', 'Y'),
  ('CN(CCO)C(=O)c1cn(Cc2c[nH]cn2)cc1-c1cccc2ccccc12', 'Ras farnesyl transferase (Homo sapiens, UniProt P49354+P49356)', 'N'),
  ('COC(=O)c1sc(Cc2cncn2Cc2ccc(Cl)cc2)nc1-c1cccc2ccccc12', 'Ras farnesyl transferase (Homo sapiens, UniProt P49354+P49356)', 'N'),
  ('O=C(c1ccc(Cl)cc1Cl)c1cn(Cc2c[nH]cn2)cc1-c1cccc2ccccc12', 'Ras farnesyl transferase (Homo sapiens, UniProt P49354+P49356)', 'Y'),
  ('Cc1ccc(C(=O)c2cn(Cc3c[nH]cn3)cc2-c2cn(C)c3ccccc23)cc1', 'Ras farnesyl transferase (Homo sapiens, UniProt P49354+P49356)', 'N'),
  ('O=C(c1ccc(F)cc1F)c1cn(Cc2c[nH]cn2)cc1-c1cccc2ccccc12', 'Ras farnesyl transferase (Homo sapiens, UniProt P49354+P49356)', 'N'),
  ('CN1CCN(C(=O)c2cn(Cc3cncn3Cc3cccc(Cl)c3)cc2-c2cccc3ccccc23)CC1', 'Ras farnesyl transferase (Homo sapiens, UniProt P49354+P49356)', 'Y'),
  ('Cn1cnc(Cn2cc(C(=O)c3ccc(Oc4ccccc4)cc3)c(-c3cccc4ccccc34)c2)c1', 'Ras farnesyl transferase (Homo sapiens, UniProt P49354+P49356)', 'Y'),
  ('CSCC[C@H](NC(=O)c1cn(CCCc2c[nH]cn2)cc1-c1cccc2ccccc12)C(=O)O', 'Ras farnesyl transferase (Homo sapiens, UniProt P49354+P49356)', 'N'),
  ('COCCN(C)C(=O)c1cn(Cc2cncn2C(C)c2ccccc2)cc1-c1cccc2ccccc12 (stereo in doubt)', 'Ras farnesyl transferase (Homo sapiens, UniProt P49354+P49356)', 'Y'),
  ('COCCN(C)C(=O)c1cn(Cc2cncn2CCc2ccc(F)cc2)cc1-c1cccc2ccccc12', 'Ras farnesyl transferase (Homo sapiens, UniProt P49354+P49356)', 'Y'),
  ('CN1CCN(C(=O)c2cn(Cc3cncn3Cc3ccc4c(c3)OCO4)cc2-c2cccc3ccccc23)CC1', 'Ras farnesyl transferase (Homo sapiens, UniProt P49354+P49356)', 'Y'),
  ('CN1CCN(C(=O)c2cn(Cc3cncn3CCCc3ccccc3)cc2-c2cccc3ccccc23)CC1', 'Ras farnesyl transferase (Homo sapiens, UniProt P49354+P49356)', 'Y'),
  ('CN1CCN(C(=O)c2cn(Cc3cncn3Cc3cccc4ccccc34)cc2-c2cccc3ccccc23)CC1', 'Ras farnesyl transferase (Homo sapiens, UniProt P49354+P49356)', 'Y'),
  ('O=C(c1cn(Cc2cncn2CCc2ccccc2)cc1-c1cccc2ccccc12)N1CCOCC1', 'Ras farnesyl transferase (Homo sapiens, UniProt P49354+P49356)', 'Y'),
  ('COCCN(C)C(=O)c1cn(Cc2cncn2Cc2ccc3ccccc3c2)cc1-c1cccc2ccccc12', 'Ras farnesyl transferase (Homo sapiens, UniProt P49354+P49356)', 'Y'),
  ('O=C(c1cn(CCn2ccnc2)cc1-c1cccc2ccccc12)N1CCOCC1', 'Ras farnesyl transferase (Homo sapiens, UniProt P49354+P49356)', 'N'),
  ('O=C(c1cn(Cc2cncn2Cc2ccc3c(c2)OCO3)cc1-c1cccc2ccccc12)N1CCOCC1', 'Ras farnesyl transferase (Homo sapiens, UniProt P49354+P49356)', 'Y'),
  ('CSCCOc1ccc(C(=O)c2cn(Cc3c[nH]cn3)cc2-c2cccc3ccccc23)cc1', 'Ras farnesyl transferase (Homo sapiens, UniProt P49354+P49356)', 'N'),
  ('O=C(c1cn(CCCc2c[nH]cn2)cc1-c1cccc2ccccc12)N1CCOCC1', 'Ras farnesyl transferase (Homo sapiens, UniProt P49354+P49356)', 'N'),
  ('CN1CCN(C(=O)c2cn(Cc3cncn3CCc3ccc(Cl)cc3)cc2-c2cccc3ccccc23)CC1', 'Ras farnesyl transferase (Homo sapiens, UniProt P49354+P49356)', 'Y'),
  ('O=C(c1cn(Cc2c[nH]cn2)cc1-c1cccc2ccccc12)N1CCNCC1', 'Ras farnesyl transferase (Homo sapiens, UniProt P49354+P49356)', 'N'),
  ('COC(=O)c1sc(Cc2cncn2CC2CCN(C(=O)OCc3ccccc3)CC2)nc1-c1cccc2ccccc12', 'Ras farnesyl transferase (Homo sapiens, UniProt P49354+P49356)', 'N'),
  ('CN1CCN(C(=O)c2cn(Cc3cncn3CCc3ccccc3Cl)cc2-c2cccc3ccccc23)CC1', 'Ras farnesyl transferase (Homo sapiens, UniProt P49354+P49356)', 'Y'),
  ('CN1CCN(C(=O)c2cn(Cc3cncn3CCc3cccc4ccccc34)cc2-c2cccc3ccccc23)CC1', 'Ras farnesyl transferase (Homo sapiens, UniProt P49354+P49356)', 'Y'),
  ('C[C@@H](c1ccccc1)n1cncc1Cn1cc(C(=O)N2CCN(C)CC2)c(-c2cccc3ccccc23)c1', 'Ras farnesyl transferase (Homo sapiens, UniProt P49354+P49356)', 'Y');

Data credit: patent US6472526B1
